Test system: VZV-BAC-Luc
Protocol Summary: VZV yield in HFFs by quantitative real-time PCR
Type: cell-based, varicella-zoster virus
Details: read-out: EC50 determined by qPCR, VZV genomes
Measurement Name: EC50

Lab note: need EC50 with VZV-BAC-Luc for entry O=c1ccn(C2OC(CO)OC2/C=C/Br)c(=O)[nH]1 [L-BHDU (1)] , please look it up.
~70 nM
